- assay-text: NCI Yeast Anticancer Drug Screen. Data for the mec2-1 strain (AID 157)
- setup-conditions: S. cerevisiae mec2-1 strain, at 5.0 µM (retest, dose inferred, filed as 0.5), active compounds read high
- Method: Growth inhibition of yeast strains with defined genetic alterations is measured as a screen for potential anti-cancer activity. Selected strains with alterations in DNA damage repair or cell cycle control were exposed to compounds and growth inhibition was measured relative to vehicle treated controls. The strain used in this assay is mec2-1
About 79,000 compounds went through this panel and 15% of them were active in at least one assay; those are over-represented in the sample as a whole.
outcome-measure: growth inhibition (%)
Supply the numeric figure in %, leaving out any unit text.

Exam item: What value of growth inhibition has been recorded for this entry: Nc1ccccc1-c1nc2c(ccc3ccccc32)[nH]1
Marked response: -17

Exam item: Let us now turn to CN1CCS(=O)(=O)C1=O
Marked response: 2

Exam item: Let us now turn to CCSc1nnc(CSc2nc(-c3ccccc3)c(-c3ccccc3)[nH]2)n1-c1ccccc1
Marked response: 30

Exam item: Let us now turn to CC(=O)OCc1cc2ccccc2nc1C(Br)(Br)Br
Marked response: -6

Exam item: Let us now turn to CCCCCN(CCCCC)C(=S)Nc1ccccc1
Marked response: -5

Exam item: Let us now turn to O=C(O)/C=C/c1c2ccccc2cc2ccccc12
Marked response: 16

Exam item: Let us now turn to CC(=O)OCCC1=CCC2CC1C2(C)C (stereo unspecified)
Marked response: -40

Exam item: Let us now turn to O=[N+]([O-])c1cc(C(F)(F)F)cc([N+](=O)[O-])c1N1CCCC(n2cccc2)C1 (stereo unspecified)
Marked response: -6

Exam item: Let us now turn to CN(C)CCCC(=O)OCC[N+](C)(C)C
Marked response: -4

Exam item: Let us now turn to CC(=O)Nc1ccc(C(=O)NN2C(=O)C(Cl)C2c2cc(Br)cc(Br)c2O)cc1 (stereo unspecified)
Marked response: -6

Exam item: Let us now turn to Cc1ccc(C(=O)OCCN2CCN(c3ccccc3)CC2)c([N+](=O)[O-])c1OCc1ccccc1
Marked response: 36

Data origin: PubChem BioAssay (NCI)
